Experiment: qHTS assay for small molecule disruptors of the mitochondrial membrane potential (AID 720635)
Details: HepG2 mitochondrial membrane potential, Mito-MPS dye ratio; series mostly up to 83.2 µM
Records with an inconclusive call do not appear. Calls of active or inactive are those of the source. Calls follow the shape of the dose curve; as a rule, active = well fitted inhibition curve with a large enough effect in the signal ratio in the repeat runs; inconclusive = weak or mixed curves, or effect the other way; inactive = flat fitted curve, though single readings scatter; the % refers to the signal ratio.
Would you mind answering with one of these outcomes? active, inactive

INSERT INTO assay_data (compound, assigned_label) VALUES
  ('OC12N=C(c3ccccc3)SC1Cc1cc(Cl)ccc12 (stereo unspecified)', 'active'),
  ('CC(CCc1ccccc1)NCC(O)c1ccc(O)c(C(N)=O)c1 (stereo unspecified)', 'inactive'),
  ('CCC(C)[O-].CCC(C)[O-].CCOC(=O)/C=C(/C)[O-].[Al+3]', 'inactive'),
  ('c1ccsc1', 'inactive'),
  ('C=CCn1c(=O)n(CC=C)c(=O)n(CC=C)c1=O', 'inactive'),
  ('CCCC[P+](C)(CCCC)CCCC', 'active');

We now examine a further compound.
Recorded test call requested for O=C(O)c1cc(=O)c2ccccc2o1
inactive
